Source listed as the nanobody polyreactivity screen of Harvey et al. (2022).

test-description: yeast display, Sf9 membrane polyspecificity reagent, FACS + sequencing; frameworks hold sequencing errors
endpoint-name: polyreactivity (PSR sort gate)

// worked examples, polyreactivity (PSR sort gate) included
primary-sequence | experimental-result
QVQLVESGGGLVQAGGSLRLSCAASGSIFYGYAMGWSRQAPGKERELVAVITDGGGSTYYADSVKGRFTISRDNAKNTVYLQMNSLKPEDTAVYYCAADSWGPYYYSSYSYDYWGQGTQVTVSS | low polyreactivity
QVQLVESGGGLVQAGGSLRLTCAASGSIFDKNVMGSYRQAPGKERELVAAISSSGGSTYYADSVKGRFTISRDIAKNTVYLQMNSLKPVDSAVYYCAKVPGRDRADRYWDHYSHDYWGQGTQVTVSS | high polyreactivity
QVQLVESGGGLVQAGGSLRLSCAASGSTFRANAMGRYRQAPGKERELVAAINSGGSTYYADSVKGRFTISRDNAKNTVYLQMNSLKPEDTAVYYCNKRYWRSDYWGQGTQVTVSS | high polyreactivity
QVQLVESGGGLVQAGGSLRLSCAASGSIFYGNTMGWYRQAPGKEREFVAAINKSDDSTYYADSVKGRFTISRDNAKNTVYLQMNSLKPEDTAVYYCAADYLGRFDYNYWGQGTQVTVSS | low polyreactivity
QVQHEDSGGGLVQAGGSHPLSCAASGSTFRVNAMGWYRQAPGKERELVAAISRRGGSTYYADSVKGRFTISRDNSKNTVYLQMNCLKPEDTAVYYCAAERLGTVQDDYWGQGTQVTVSS | high polyreactivity

// next item, polyreactivity (PSR sort gate) requested
// polyreactivity (PSR sort gate) lookup, sequence = QVQLVESAGGLVQARVSLRLSSAASGRTIPTYTMGWYRQAPGKERELVAAITRGGSTKYADSVKGRFTISRDNAKNTVYLQMNSLKPEDTAVYYCAAVYRYRHSFAYYRHEMDYWGLGTQVTVSS , result: low polyreactivity
